B1: FUNDC2 (parent)
chain: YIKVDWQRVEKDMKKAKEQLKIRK

Variants of: B1
Test: protein stability index of a GFP-peptide fusion (GPS, HEK-293T) (PSI 1-6); higher = more stable;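 also: lentivirally expressed fusions sorted by FACS into six bins by GFP to DsRed ratio, PSI derived from sequencing read proportions per bin multiplied by bin number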
Settings: c terminus: a fixed tail appended
Each entry gets label 0 if its protein stability index stays under 2, and label 1 if its protein stability index is 2 or above.

K15Y
label 1
V9R
label 0
R8E
label 1
E18S
label 1
M13A
label 0

Here is another variant to look at.
Inquiry: hey, is protein stability index for this one >= 2? Y1V
Reply text: label 1

Data origin, for the record: the supplement of paper PMC10567573
